experiment: Quantitative High-Throughput drug screen in 47 multiple myeloma cell lines against the NCATS MIPE library collection: KMS28PE_JCRB cell viability assay (AID 1918983); details: KMS28PE multiple myeloma viability, CellTiter-Glo ATP, 48 h; series mostly up to 45.8 µM; further: nearly all actives have a fitted effect of over 35% in size
Inconclusive results are not listed. The source made the active and inactive calls. The call rests on the fitted dose curve; in most records, active means well fitted cell-killing curve with a large enough effect; inconclusive means small, poorly fitted or top-dose-only effect, or effect the other way; inactive means no such curve, though single readings can be large or run the other way.
Can you answer with just one of these options? T for active, F for inactive

query: Hello, I am checking results. What call was entered for C[C@@H]1CC[C@@]2(OC1)O[C@H]1C[C@H]3[C@@H]4CC=C5C[C@@H](O[C@@H]6O[C@H](CO)[C@@H](O[C@@H]7O[C@@H](C)[C@H](O)[C@@H](O)[C@@H]7O)[C@H](O)[C@@H]6O[C@@H]6O[C@@H](C)[C@H](O)[C@@H](O)[C@@H]6O)CC[C@]5(C)[C@@H]4CC[C@]3(C)[C@@H]1[C@H]2C ?
result: T

***
query: How was CN[C@@H]1Cc2cccc3[nH]c(=O)n(c23)C1 classified in this test?
result: F

query: Just curious, what result did CC=C(C)C(=O)N[C@@H](c1ccccc1)[C@@H](O)C(=O)O[C@H]1C[C@@]2(O)[C@@H](OC(=O)c3ccccc3)[C@@H]3[C@]4(OC(C)=O)CO[C@@H]4C[C@H](O)[C@@]3(C)C(=O)[C@H](OC(C)=O)C(=C1C)C2(C)C get here?
result: F

query: I would be grateful if you could indicate the recorded call for O=C(N[C@H]1CN2CCC1CC2)c1ccc(Cl)cc1 .
result: F

query: # outcome recorded in this test, key = COc1cccc2c1[C@]13CCN(CC4CC4)[C@H](C2)[C@]1(OC)CCC(=O)C3
result: F

query: Just curious, what result did Cc1ccccc1-n1c(Cn2ncc3c(N)ncnc32)nc2cccc(C)c2c1=O get here?
result: T
